# tested_on: MCL-1/Bim (Homo sapiens (Human))
# Sequence (Q07820 171-327): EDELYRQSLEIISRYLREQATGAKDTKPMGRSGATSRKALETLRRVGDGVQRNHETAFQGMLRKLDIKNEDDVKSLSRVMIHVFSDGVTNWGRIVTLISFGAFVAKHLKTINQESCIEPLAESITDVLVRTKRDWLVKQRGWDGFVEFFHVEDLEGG
# assay_text: MCL-1/Bim Binding AlphaLISA Assay
# experimental_parameters: 6xHis-Mcl-1 (171-327) and biotinylated Bim peptide (51-76)
readout_name: pIC50
# pIC50: negative log10 of molar concentration; output just the value

pIC50 for CO[C@H]1/C=C/C[C@H](C)C[S@@](=O)(NC(=O)C2CC(OC(F)F)C2)=NC(=O)c2ccc3c(c2)N(C[C@@H]2CC[C@H]21)C[C@@]1(CCCc2cc(Cl)ccc21)CO3 (some centres unmarked) ?
9.92

pIC50 for COc1nn(C)cc1C(=O)N[S@@]1(=O)=NC(=O)c2ccc3c(c2)N(C[C@@H]2CC[C@H]2[C@@H](O)/C=C/[C@H](O)[C@H](C)C1)C[C@@]1(CCCc2cc(Cl)ccc21)CO3 ?
10.39

pIC50 for CO[C@H]1/C=C/CCC[S@@](=O)(NC(=O)CCc2ccn(C)n2)=NC(=O)c2ccc3c(c2)N(C[C@@H]2CC[C@H]21)C[C@@]1(CCCc2cc(Cl)ccc21)CO3 ?
10.00

pIC50 for CCOC(=O)NS1(=O)=NC(=O)c2ccc3c(c2)N(C[C@@H]2CC[C@H]2[C@@H](OC)/C=C/CCC1)C[C@@]1(CCCc2cc(Cl)ccc21)CO3 (single isomer, unassigned) ?
8.44

pIC50 for CCC(=O)N[S@]1(=O)=NC(=O)c2ccc3c(c2)N(C[C@@H]2CC[C@H]2[C@@H](OC)/C=C/CCC1)C[C@@]1(CCCc2cc(Cl)ccc21)CO3 ?
8.39

----------
Please provide measured pIC50 for the entries that follow.
# tested_on: MCL-1/Bim (Homo sapiens (Human))
# assay_text: MCL-1/Bim Binding AlphaLISA Assay
# experimental_parameters: 6xHis-Mcl-1 (171-327) and biotinylated Bim peptide (51-76)
# pIC50: negative log10 of molar concentration; output just the value

pIC50 for CO[C@H]1/C=C/C[C@H](C)C[S@@](=O)(CC(=O)N[C@@H]2CC[C@@H](O)C2)=NC(=O)c2ccc3c(c2)N(C[C@@H]2CC[C@H]21)C[C@@]1(CCCc2cc(Cl)ccc21)CO3 ?
10.36

pIC50 for CC[C@H]1CN2C[C@@]3(CCCc4cc(Cl)ccc43)COc3ccc(cc32)C(=O)N=[S@](=O)(NC(C)=O)CCC/C=C/[C@H](OC)[C@@H]1C ?
9.22

pIC50 for CCC(=O)N[S@@]1(=O)=NC(=O)c2ccc3c(c2)N(C[C@@H]2CC[C@H]2[C@@H](OC)CCCCC1)C[C@@]1(CCCc2cc(Cl)ccc21)CO3 ?
8.19

----------
# tested_on: MCL-1/Bim (Homo sapiens (Human))
# assay_text: MCL-1/Bim Binding AlphaLISA Assay
# experimental_parameters: 6xHis-Mcl-1 (171-327) and biotinylated Bim peptide (51-76)
Please provide measured IC50 for the entries that follow.
All answers are understood in nM, so give the number only.

IC50 for CC[C@H]1CN2C[C@@]3(CCCc4cc(Cl)ccc43)COc3ccc(cc32)C(=O)N=[S@](=O)(NC(=O)NC(C)C)CCC/C=C/[C@H](OC)[C@@H]1C ?
1.1

IC50 for CC[C@H]1CN2C[C@@]3(CCCc4cc(Cl)ccc43)COc3ccc(cc32)C(=O)N=[S@](=O)(NC(=O)CC(C)C)CCC/C=C/[C@H](OC)[C@@H]1C ?
1.8

IC50 for CO[C@H]1/C=C/CCC[S@@](=O)(NC(=O)CCc2ccnn2C)=NC(=O)c2ccc3c(c2)N(C[C@@H]2CC[C@H]21)C[C@@]1(CCCc2cc(Cl)ccc21)CO3 ?
0.1
